Data origin: PubChem BioAssay (NCATS)

Protocol Description: BET inhibitor-based combinations targeting novel dependencies in MECOM-rearranged (r) AML: SET-2 cell line (AID 2202231); also: potency is read from the fitted curve at half-maximal effect; nearly all actives have a fitted effect of over 35% in size
Run Conditions: SET-2 AML cells viability, CellTiter-Glo luminescence, 48 h
Records with an inconclusive call do not appear. Active and inactive are the calls of the source. Calls follow the shape of the dose curve; as a rule, active = well fitted inhibition curve with a large enough effect; inconclusive = small, poorly fitted or top-dose-only effect; inactive = no such curve, though single readings can be large or run the other way.

- Molecule: "Cc1ccc(-c2ncn(-c3ccc(Nc4nccc(-c5cccc(N6CCOCC6)c5)n4)cc3)n2)cn1"
  Potency: "3.72 µM (active)"
- Molecule: "Fc1ccc(-c2csc3ncnc(NCc4ccc5c(c4)OCO5)c23)cc1"
  Potency: "5.9 µM (active)"
- Molecule: "CN(C)C[C@@H]1CCn2cc(c3ccccc32)C2=C(C(=O)NC2=O)c2cn(c3ccccc23)CCO1"
  Potency: "8.33 µM (active)"
- Molecule: "O=[N+]([O-])c1ccc(O)c2ncccc12"
  Potency: "16.6 µM (active)"
- Molecule: "COC1CCC(N2C(=O)CNc3ncc(-c4ccc(C(C)(C)O)nc4)nc32)CC1 (centres undefined)"
  Potency: "7.42 µM (active)"
- Molecule: "C[C@@H](C(=O)Nc1ccc(Cl)cc1)C1CCC(c2ccnc3ccc(F)cc23)CC1 (some centres undefined)"
  Potency: "16.6 µM (active)"
- Molecule: "COc1nc(OCc2cccc(-c3ccccc3)c2C)ccc1CNCCNC(C)=O"
  Potency: "26.3 µM (active)"
- Molecule: "O=c1[nH]c(=O)n([C@H]2C[C@H](O)[C@@H](CO)O2)cc1F"
  Potency: "0.296 µM (active)"
- Molecule: "C/C=C(/C)C(=O)O[C@H]1C(C)=CC23C(=O)C(C=C(CO)[C@@H](O)[C@]12O)[C@H]1[C@@H](C[C@H]3C)C1(C)C (some centres undefined)"
  Potency: "7.42 µM (active)"
